- assay.comment: yeast display, Sf9 membrane polyspecificity reagent, FACS + sequencing; frameworks hold sequencing errors
observable: polyreactivity (PSR sort gate)

# polymer.sequence, value.observed
measured = [
    ("QVQLVESGVGLVQAGGSLRLSCAASGFTFRYYAMGWYRQAPGKERELVAAIRSGGRTYYADSVKGRFTISRDNAKNTVYLQMNSLKPEDTAVYYCNAKYKYSRGYDYWGQGTQVTVSS", "high polyreactivity"),
    ("QVQLVESGGGLVQAGGSLRLSCAASGFTFIRYAMGWYIQAPGKERELVASISNRGGRTYYADSVKGRFTISRDNAKNTFYLQMNSLKPEDTAVYYCAAKFSSYWSRFGYWGQGTQVTVSS", "high polyreactivity"),
    ("QVHLVESGGGLVQAGGSLRLSCAASGSIFAGNAMGLSRQAPGKERELVAGISRSGGSTNYADSVKGRFTISRDNAKNSVYLQMNSLKPEDTAVYYCNTDPYSSAWYNYDYWGLGTQVTVSS", "low polyreactivity"),
    ("QVQLVESGGGLVQAGGSLRLSCAASGRTFYRYAMGWYRQAPGKERELVATISRSGGSTYYADSVKGRFTISRDNAKYTVYLQMKSLNPEDTAVYYCNAEGYPWGFYTYDYWGQGTQVTVSS", "low polyreactivity"),
    ("QVQLVESGGGLVQAGGSLRLSCAASGGTFYFYAMVWYRQAPGKERELVAAISRSGGSTYYADSVKGRFTISRDNAKNTVYLQMNSLKPEDTAVYYCAARYTGGGIRYDYWGQGTQVTVSS", "high polyreactivity"),
    ("QVQLEDSGGGLVQAGGSLRLSCAASGSTFPLNAMGWYRQAPGKERELVASINFGGGTTYYADSVKGRFTISRDNAMNTVYLQMNSLKPEDTAVYYCAADVYQEFGYWGQGTQVTVSS", "high polyreactivity"),
    ("QVQLVESGGGLVQAGGSLRLSCAASGLTFSIYAMGWYRQAPGKERELVAAISSTGSTNYADSVKGRFTISRDNAKNTVYLQMNSLKPEDTAVYYCAAELQPSPVGGIIQYGFDYWGQGTQVTVSS", "low polyreactivity"),
    ("QVQLVESGGGLVQAGGSLRLSCAASGFTFSYNTMGWYRQAPGKERELVAAISGSGARTYYADSVKGRFTISRDNAKNSVYLQMNSLKPEDTAVYYCNAKYGYDSEARIVKPVRYDYWGQGTQVTVSS", "high polyreactivity"),
    ("QEQLVESGGGLVQAGGSLRLICPASGSIFNIYAMPWSRQAPGKERELVATITGIADSTYYADSVKGRFTISRDNAMNTVYLQMNSLKPEDTAVYYCAAEKYVAEYDYWGHGTQVTVSS", "low polyreactivity"),
    ("QVQLVESGGGLVQAGGSLRLSCAASGSIFGDNAMGWYRQAPGKERELVAAISGSTGSTNYADSVKGRFTISRDNAKNTVYLQMNSLKPEDTAVYYCNVGGLEYFVFKGVSVPDDYWGQGTQVTVSS", "low polyreactivity"),
    ("QVQLVESGGGLVQAGGSLRLSCAASGIIFYYYVMGWYRQAPGKERELVAAISRSGGRTRYADSVKGRFTISRDNAKNTVYLQMNSLKPEDTAVYYCAAVGSVNYDADFDYWGQGTQVTVSS", "high polyreactivity"),
]
